Assayed target: Protein kinase C gamma type (Homo sapiens)
Protocol: Inhibitory concentration against recombinant human Protein kinase C gamma isozyme
Recorded metric: IC50 (nM)
Write the value in nM as a bare number.

Look up IC50: CC(C)N1C[C@@H](NC(=O)c2ccc(O)cc2)[C@H](OC(=O)c2cc(O)c(C(=O)c3c(O)cccc3C(=O)O)c(O)c2)C1
90

Look up IC50: CS(=O)(=O)N1C[C@@H](NC(=O)c2ccc(O)cc2)[C@H](OC(=O)c2cc(O)c(C(=O)c3c(O)cccc3C(=O)O)c(O)c2)C1
400

Look up IC50: CC(=O)N1C[C@@H](NC(=O)c2ccc(O)cc2)[C@H](OC(=O)c2cc(O)c(C(=O)c3c(O)cccc3C(=O)O)c(O)c2)C1
390

Look up IC50: O=C(N[C@@H]1CS(=O)(=O)CCC[C@H]1OC(=O)c1cc(O)c(C(=O)c2c(O)cccc2C(=O)O)c(O)c1)c1ccc(O)cc1
4300

Look up IC50: O=C(N[C@@H]1C2CCC(C2)[C@H]1OC(=O)c1cc(O)c(C(=O)c2c(O)cccc2C(=O)O)c(O)c1)c1ccc(O)cc1 (some centres not stated)
40

Look up IC50: O=C(N[C@@H]1C[C@@H](O)C[C@H]1OC(=O)c1cc(O)c(C(=O)c2c(O)cccc2C(=O)O)c(O)c1)c1ccc(O)cc1
30

Look up IC50: N[C@@H]1C[C@@H](NC(=O)c2ccc(O)cc2)[C@H](OC(=O)c2cc(O)c(C(=O)c3c(O)cccc3C(=O)O)c(O)c2)C1
5
